Molecular target: Carboxypeptidase A1 (Bos taurus)
Sequence (P00730 whole entry): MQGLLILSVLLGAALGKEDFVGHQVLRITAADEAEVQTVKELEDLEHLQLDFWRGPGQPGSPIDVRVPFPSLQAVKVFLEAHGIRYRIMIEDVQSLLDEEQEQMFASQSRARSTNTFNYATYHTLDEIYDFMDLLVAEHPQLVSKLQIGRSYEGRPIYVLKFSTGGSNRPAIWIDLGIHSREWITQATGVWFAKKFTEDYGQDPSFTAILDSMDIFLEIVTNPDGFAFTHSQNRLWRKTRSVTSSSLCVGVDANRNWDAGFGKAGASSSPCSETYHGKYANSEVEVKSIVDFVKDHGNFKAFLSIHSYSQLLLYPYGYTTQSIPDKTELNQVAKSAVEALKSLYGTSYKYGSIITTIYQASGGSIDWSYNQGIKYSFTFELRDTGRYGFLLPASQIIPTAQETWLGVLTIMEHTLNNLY
The entries below are paired with their reported IC50.
metric name: IC50 (µM)

• CC[C@H](C)[C@H](NC(=O)[C@@H](CCCCN)NC(=O)N[C@@H](Cc1ccccc1)C(=O)O)C(=O)N[C@@H](Cc1ccccc1)C(N)=O = 4.5
• CC[C@H](C)[C@@H]1NC(=O)[C@H](NC(=O)N[C@@H](Cc2ccccc2)C(=O)O)CCCCNC(=O)[C@H](Cc2ccccc2)NC1=O [NAMALIDE] = 0.25
